# Protocol Notes: AUC (0 to infinity) in Sprague-Dawley rat at 1 mg/kg, iv
# Type: ADME, organism-based
# Set-up: route intravenous, time infinity, dose 1 mg/kg
# Recorded Conditions: in vivo
Property Label: AUC(0-inf) (ng·h/mL)

Smiles Repr	Property Label	Reported Result
Cc1ccc(C(=O)Nc2ccc(CN3CCN(C)CC3)c(C(F)(F)F)c2)cc1Oc1nc(-c2cccnc2)nc2[nH]ncc12	AUC(0-inf)	7010

###

# Tested On: Coiled-coil domain-containing protein 6/Tyrosine-protein kinase receptor RET (Homo sapiens) (UniProt P07949+Q16204)
# Sequence (P07949 29-1114 limits assumed): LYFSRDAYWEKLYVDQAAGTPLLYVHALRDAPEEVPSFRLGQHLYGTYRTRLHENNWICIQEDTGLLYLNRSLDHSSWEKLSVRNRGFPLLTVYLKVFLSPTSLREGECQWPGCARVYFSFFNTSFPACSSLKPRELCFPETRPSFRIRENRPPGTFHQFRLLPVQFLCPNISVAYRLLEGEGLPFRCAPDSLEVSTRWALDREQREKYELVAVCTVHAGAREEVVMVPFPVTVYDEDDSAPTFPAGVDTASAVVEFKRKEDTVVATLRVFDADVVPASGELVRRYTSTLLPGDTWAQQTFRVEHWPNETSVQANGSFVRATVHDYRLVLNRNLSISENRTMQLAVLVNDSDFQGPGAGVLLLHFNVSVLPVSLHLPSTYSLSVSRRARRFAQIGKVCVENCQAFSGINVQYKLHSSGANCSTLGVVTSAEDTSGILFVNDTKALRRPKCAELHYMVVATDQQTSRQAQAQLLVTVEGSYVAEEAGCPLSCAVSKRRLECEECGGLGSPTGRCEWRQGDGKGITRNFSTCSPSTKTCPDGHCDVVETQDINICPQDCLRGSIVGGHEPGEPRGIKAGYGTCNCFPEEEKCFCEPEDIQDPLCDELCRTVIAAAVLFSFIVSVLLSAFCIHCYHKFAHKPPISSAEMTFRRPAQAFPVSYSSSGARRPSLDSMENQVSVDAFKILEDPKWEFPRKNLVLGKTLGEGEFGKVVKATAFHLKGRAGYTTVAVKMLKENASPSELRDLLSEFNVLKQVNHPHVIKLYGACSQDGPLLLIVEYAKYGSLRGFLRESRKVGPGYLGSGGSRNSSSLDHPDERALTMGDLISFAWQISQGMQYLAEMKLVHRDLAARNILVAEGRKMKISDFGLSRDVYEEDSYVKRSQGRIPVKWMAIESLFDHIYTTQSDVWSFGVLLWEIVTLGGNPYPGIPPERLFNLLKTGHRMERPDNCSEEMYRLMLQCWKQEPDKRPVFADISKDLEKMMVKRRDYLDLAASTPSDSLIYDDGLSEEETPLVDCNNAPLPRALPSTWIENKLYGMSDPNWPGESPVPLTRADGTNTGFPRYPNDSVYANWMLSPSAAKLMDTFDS
# Sequence (Q16204 2-474 partner limits assumed): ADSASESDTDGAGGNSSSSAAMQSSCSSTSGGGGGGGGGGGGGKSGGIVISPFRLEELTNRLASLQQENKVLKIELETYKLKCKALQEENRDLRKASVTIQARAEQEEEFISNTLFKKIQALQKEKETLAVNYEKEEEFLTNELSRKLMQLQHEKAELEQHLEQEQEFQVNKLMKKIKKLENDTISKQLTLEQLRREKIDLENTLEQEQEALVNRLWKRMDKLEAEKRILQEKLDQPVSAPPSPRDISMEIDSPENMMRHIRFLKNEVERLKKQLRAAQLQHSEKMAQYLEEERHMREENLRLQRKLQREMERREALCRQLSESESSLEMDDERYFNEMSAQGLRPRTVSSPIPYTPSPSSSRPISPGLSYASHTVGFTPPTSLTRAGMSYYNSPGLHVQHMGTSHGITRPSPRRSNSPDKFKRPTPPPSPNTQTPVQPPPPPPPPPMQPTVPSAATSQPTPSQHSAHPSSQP
# Protocol Notes: Inhibition of CCDC6-RET fusion protein (unknown origin) expressed in mouse BaF3 cells assessed as reduction in cell proliferation measured after 48 hrs by MTS assay
# Type: cell-based

Compound	Bound Type	GI50 (µM)
Cc1ccc(C(=O)Nc2ccc(CN3CCN(C)CC3)c(C(F)(F)F)c2)cc1Oc1nc(-c2cccc(O)c2)nc2c1cnn2C	=	0.178
CO[C@]1(C(=O)N[C@@H](C)c2ccc(-n3cc(F)cn3)nc2)CC[C@H](c2nc(C)cc(Nc3cc(C)[nH]n3)n2)CC1 [PRALSETINIB]	<	0.004
CCn1ncc2c(Oc3cc(C(=O)Nc4ccc(CN5CCN(C)CC5)c(C(F)(F)F)c4)ccc3C)nc(-c3ccncc3)nc21	>	10
Cc1ccc(C(=O)Nc2ccc(CN3CCN(C)CC3)c(C(F)(F)F)c2)cc1Oc1nc(-c2ccncc2)nc2c1cnn2C	=	0.039
Cc1ccc(C(=O)Nc2ccc(CN3CCN(C)CC3)c(C(F)(F)F)c2)cc1Oc1nc(-c2ccncc2)nc2c1cnn2C(C)C	=	1.1
Cc1ccc(C(=O)Nc2ccc(CN3CCN(C)CC3)c(C(F)(F)F)c2)cc1Oc1nc(-c2cccnc2)nc2c1cnn2C	=	0.039
Cc1ccc(C(=O)Nc2cc(CN3CCN(C)CC3)cc(C(F)(F)F)c2)cc1Oc1nc(-c2cccnc2)nc2c1cnn2C	=	0.264

###

# Protocol Notes: AUC (0 to t) in Sprague-Dawley rat at 10 mg/kg, po
# Assay type: ADME, organism-based
# Design: dose 10 mg/kg
# Recorded Conditions: in vivo

Smiles Repr	AUC(0-t), ng·h/mL
Cc1ccc(C(=O)Nc2ccc(CN3CCN(C)CC3)c(C(F)(F)F)c2)cc1Oc1nc(-c2cccnc2)nc2[nH]ncc12	2110

###

# Tested On: Coiled-coil domain-containing protein 6/Tyrosine-protein kinase receptor RET (Homo sapiens) (UniProt P07949+Q16204)
# Protocol Notes: Inhibition of CCDC6-RET fusion protein (unknown origin) expressed in mouse BaF3 cells assessed as reduction in cell proliferation measured after 48 hrs by MTS assay
# Assay type: cell-based
GI50 values, listed per item

Compound	Result Units	GI50
COc1cc2nccc(Oc3ccc(NC(=O)C4(C(=O)Nc5ccc(F)cc5)CC4)cc3)c2cc1OC [CABOZANTINIB]	nM	29
Cc1ccc(C(=O)Nc2ccc(CN3CCN(C)CC3)c(C(F)(F)F)c2)cc1Oc1nc(-c2cccnc2)nc2[nH]ncc12	nM	9
Cc1ccc(C(=O)Nc2cccc(C(F)(F)F)c2)cc1Oc1nc(-c2cccnc2)nc2c1cnn2C	nM	1970
Cc1cn(-c2cc(NC(=O)c3ccc(C)c(Oc4nc(-c5ccncc5)nc5c4cnn5C)c3)cc(C(F)(F)F)c2)cn1	nM	1570

###

# Tested On: Coiled-coil domain-containing protein 6/Tyrosine-protein kinase receptor RET (Homo sapiens) (UniProt P07949+Q16204)
# Protocol Notes: Inhibition of CCDC6-RET fusion protein (unknown origin) expressed in mouse BaF3 cells assessed as reduction in cell proliferation measured after 48 hrs by MTS assay
# Type: cell-based
Property Label: GI50

Smiles Repr	Reported Result
CN1CCN(Cc2ccc(C(=O)Nc3cccc(Oc4nc(-c5ccncc5)nc5c4cnn5C)c3)cc2C(F)(F)F)CC1	140 nM
CN1CCN(Cc2ccc(C(=O)Nc3cccc(Oc4nc(-c5cccnc5)nc5[nH]ncc45)c3)cc2C(F)(F)F)CC1	342 nM
Cc1ccc(-c2nc(Oc3cc(C(=O)Nc4ccc(CN5CCN(C)CC5)c(C(F)(F)F)c4)ccc3C)c3cnn(C)c3n2)cc1	847 nM
CN1CCN(Cc2ccc(C(=O)Nc3cc(Oc4nc(-c5cccnc5)nc5c4cnn5C)ccc3Cl)cc2C(F)(F)F)CC1	2070 nM
CN1CCN(Cc2ccc(C(=O)Nc3cc(Oc4nc(-c5cccnc5)nc5[nH]ncc45)ccc3Cl)cc2C(F)(F)F)CC1	567 nM

###

# Tested On: Kinesin-1 heavy chain/ Tyrosine-protein kinase receptor RET (Homo sapiens) (UniProt P07949+P33176)
# Sequence (P07949 29-1114 limits assumed): as the sequence (P07949 29-1114 limits assumed) above
# Sequence (P33176 2-963 partner limits assumed): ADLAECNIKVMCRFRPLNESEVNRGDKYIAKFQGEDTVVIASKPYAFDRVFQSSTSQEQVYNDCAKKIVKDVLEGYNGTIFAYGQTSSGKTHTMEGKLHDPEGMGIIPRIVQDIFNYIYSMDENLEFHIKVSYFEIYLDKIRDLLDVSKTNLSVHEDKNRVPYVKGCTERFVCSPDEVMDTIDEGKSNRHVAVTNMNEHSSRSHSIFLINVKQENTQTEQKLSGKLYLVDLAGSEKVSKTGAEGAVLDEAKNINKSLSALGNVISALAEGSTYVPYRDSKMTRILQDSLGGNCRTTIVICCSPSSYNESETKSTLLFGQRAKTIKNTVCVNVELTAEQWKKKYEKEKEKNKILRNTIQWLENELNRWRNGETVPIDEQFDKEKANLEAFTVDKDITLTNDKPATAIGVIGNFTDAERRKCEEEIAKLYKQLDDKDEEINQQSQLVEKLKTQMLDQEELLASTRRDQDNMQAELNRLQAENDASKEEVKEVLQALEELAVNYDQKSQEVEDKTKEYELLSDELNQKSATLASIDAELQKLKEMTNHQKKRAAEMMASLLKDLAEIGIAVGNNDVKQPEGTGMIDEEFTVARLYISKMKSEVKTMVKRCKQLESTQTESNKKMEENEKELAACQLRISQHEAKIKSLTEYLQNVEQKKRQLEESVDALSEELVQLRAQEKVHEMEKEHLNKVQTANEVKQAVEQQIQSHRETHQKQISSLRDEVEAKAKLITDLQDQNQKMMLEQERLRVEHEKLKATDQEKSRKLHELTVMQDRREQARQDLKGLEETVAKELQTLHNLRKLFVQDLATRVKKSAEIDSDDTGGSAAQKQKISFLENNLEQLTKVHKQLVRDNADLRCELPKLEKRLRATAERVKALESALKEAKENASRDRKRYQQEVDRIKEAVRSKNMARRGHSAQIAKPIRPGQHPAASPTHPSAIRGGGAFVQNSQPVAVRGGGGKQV
# Protocol Notes: Inhibition of KIF5B-RET fusion protein (unknown origin) expressed in mouse BaF3 cells assessed as reduction in cell proliferation measured after 48 hrs by MTS assay
# Type: cell-based
compounds and their reported log10 of GI50
Property Label: log10 of GI50 (log10 of the value in nM)

Smiles Repr	Reported Result
CN1CCN(Cc2ccc(C(=O)Nc3cccc(Oc4nc(-c5ccncc5)nc5[nH]ncc45)c3)cc2C(F)(F)F)CC1	2.48
CN1CCN(Cc2ccc(C(=O)Nc3cc(Oc4nc(-c5cccnc5)nc5c4cnn5C)ccc3Cl)cc2C(F)(F)F)CC1	3.14
Cc1ccc(C(=O)Nc2ccc(CN3CCN(C)CC3)c(C(F)(F)F)c2)cc1Oc1nc(-c2cccnc2)nc2c1cnn2C	1.54
CN1CCN(Cc2ccc(C(=O)Nc3cc(Oc4nc(-c5ccncc5)nc5c4cnn5C)ccc3Cl)cc2C(F)(F)F)CC1	2.06
Cc1ccc(Oc2nc(-c3cccnc3)nc3c2cnn3C)cc1NC(=O)c1ccc(CN2CCN(C)CC2)c(C(F)(F)F)c1	3.65
CN1CCN(Cc2ccc(NC(=O)c3cc(Oc4nc(-c5ccncc5)nc5c4cnn5C)ccc3Cl)cc2C(F)(F)F)CC1	2.11
Cc1ccc(C(=O)Nc2ccc(CN3CCN(C)CC3)c(C(F)(F)F)c2)cc1Oc1nc(-c2ccc(O)cc2)nc2c1cnn2C	1.76
Cc1ccc(C(=O)Nc2ccc(CN3CCN(C)CC3)c(C(F)(F)F)c2)cc1Oc1nc(-c2ccsc2)nc2c1cnn2C	1.56
Cc1ccc(Oc2nc(-c3cccnc3)nc3[nH]ncc23)cc1NC(=O)c1ccc(CN2CCN(C)CC2)c(C(F)(F)F)c1	3.59
Cc1ccc(-c2nc(Oc3cc(C(=O)Nc4ccc(CN5CCN(C)CC5)c(C(F)(F)F)c4)ccc3C)c3cnn(C)c3n2)cc1	2.18
Cc1ccc(C(=O)Nc2ccc(CN3CCN(C)CC3)c(C(F)(F)F)c2)cc1Oc1nc(-c2ccncc2)nc2c1cnn2C	1.56
